- MEASUREMENT_PROTOCOL: xn = mol fraction of the nth substance listed, in the solute-free solvent
- PROTOCOL_CONDITIONS: 318.15 K; x2 = 0.6101
MEASURED_PARAMETER: solubility (g/100 g solution)
Lab note: write the figure by itself, no unit.

Consider the following illustrative entries.
molecule="CC(=O)Nc1ccc(OC(=O)c2ccccc2OC(C)=O)cc1 + CCO + O" measured_parameter="solubility (g/100 g solution)" result=1.04
molecule="CS(=O)(=O)c1ccc(C(O)C(CF)NC(=O)C(Cl)Cl)cc1 (centres undefined) + CCO + O" measured_parameter="solubility (g/100 g solution)" result=5.21

(Q) Answer with the recorded solubility (g/100 g solution) of O=[N+]([O-])c1cc[nH]n1 + CCO + O only.
(A) 8.11

(Q) Answer with the recorded solubility (g/100 g solution) of COC(=O)C1=C(C)NC(C)=C(C(=O)OCC(C)C)C1c1ccccc1[N+](=O)[O-] (centres undefined) + CCO + O only.
(A) 9.61
